target: human DGKζ (Homo sapiens, UniProt Q13574); construct: TVMV protease cleavage site (C); Hexa-His (C); made in house; host or cells: Sf9 insect cells (baculovirus, Bac-to-Bac); assay: DGKζ LIPGLO assay (extruded liposome substrate), in vitro DGK inhibition; assay type: biochemical; settings: liposome (LIPGLO) assay; read-out: DGKz LIPGLO IC50
Sequence (Q13574 with tags, fused parts or gaps isoform Q13574-4): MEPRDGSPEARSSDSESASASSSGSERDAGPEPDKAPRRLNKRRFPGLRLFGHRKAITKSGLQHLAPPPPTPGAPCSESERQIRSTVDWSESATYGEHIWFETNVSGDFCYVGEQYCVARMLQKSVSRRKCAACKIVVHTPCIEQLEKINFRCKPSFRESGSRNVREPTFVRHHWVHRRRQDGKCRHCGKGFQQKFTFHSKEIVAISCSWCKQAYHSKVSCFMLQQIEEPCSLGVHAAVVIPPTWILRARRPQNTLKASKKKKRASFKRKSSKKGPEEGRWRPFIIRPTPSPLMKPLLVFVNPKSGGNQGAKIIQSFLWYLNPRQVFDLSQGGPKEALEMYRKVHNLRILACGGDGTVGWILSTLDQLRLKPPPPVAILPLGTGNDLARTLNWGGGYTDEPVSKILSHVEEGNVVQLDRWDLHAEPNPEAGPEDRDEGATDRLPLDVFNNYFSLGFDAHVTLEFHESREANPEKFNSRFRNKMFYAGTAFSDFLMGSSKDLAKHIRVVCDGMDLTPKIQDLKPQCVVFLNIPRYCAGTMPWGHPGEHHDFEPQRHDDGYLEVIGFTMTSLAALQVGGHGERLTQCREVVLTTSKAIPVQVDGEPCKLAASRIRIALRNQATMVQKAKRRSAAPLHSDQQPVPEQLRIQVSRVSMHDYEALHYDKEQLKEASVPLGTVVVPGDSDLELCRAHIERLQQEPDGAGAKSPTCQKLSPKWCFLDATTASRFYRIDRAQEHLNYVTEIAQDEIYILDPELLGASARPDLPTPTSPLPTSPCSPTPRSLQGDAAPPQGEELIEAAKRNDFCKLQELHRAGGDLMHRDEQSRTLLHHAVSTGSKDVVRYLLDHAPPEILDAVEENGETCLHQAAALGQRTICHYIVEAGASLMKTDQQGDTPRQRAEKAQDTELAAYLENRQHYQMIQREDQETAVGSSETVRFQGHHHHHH
Categories are defined by ranges of IC50, namely LOW = under 900 nM, MID = from 900 nM up to 2000 nM, HIGH = 2000 nM and over

Exam item: Returns: class label. Input: CCC(c1ccc(F)c(F)c1)N1C[C@H](C)N(c2cc(=O)n(C)c3ccc(C#N)nc23)C[C@H]1C (single isomer, unassigned) [Example 411]
Marked response: HIGH

Exam item: Returns: class label. Input: Cc1ccc(C(c2ccc(F)cc2)N2C[C@H](C)N(c3cc(=O)n(C)c4ccc(C#N)nc34)C[C@H]2C)cc1 (single isomer, unassigned) [Example 251]
Marked response: LOW

Exam item: Returns: class label. Input: CC(C)C(C)(O)C1CN(c2cc(=O)n(C)c3ccc(C#N)nc23)CCN1C(c1ccc(F)cc1)c1ccc(F)cc1 (single isomer, unassigned) [Example 89]
Marked response: HIGH

Exam item: Returns: class label. Input: CC(c1nc(C2CC2)no1)N1C[C@H](C)N(c2c(C#N)c(=O)n(C)c3ccc(C#N)nc23)C[C@H]1C (single isomer, unassigned) [Example 1306]
Marked response: MID

Exam item: Returns: class label. Input: CCc1cc(F)ccc1C(c1ccc(F)cc1)N1C[C@H](C)N(c2cc(=O)n(C)c3ccc(C#N)nc23)C[C@H]1C (single isomer, unassigned) [Example 227]
Marked response: MID

Exam item: Returns: class label. Input: C[C@@H]1CN(c2cc(=O)n(C)c3ccc(C#N)nc23)[C@@H](C)CN1C(c1ccc(F)cc1)c1cnsc1 (single isomer, unassigned) [Example 716]
Marked response: HIGH

Exam item: Returns: class label. Input: CC(c1ccc(OC(C)(C)C)cc1)N1C[C@H](C)N(c2cc(=O)n(C)c3ccc(C#N)nc23)C[C@H]1C (single isomer, unassigned) [Example 1442]
Marked response: MID

Exam item: Returns: class label. Input: CCC(c1ccc(C2CC2)cc1F)N1C[C@H](CC)N(c2cc(=O)n(C)c3ccc(C#N)nc23)C[C@H]1CC (single isomer, unassigned) [Example 1359]
Marked response: LOW

Exam item: Returns: class label. Input: COC(=O)C1CN(c2cc(=O)n(C)c3ccc(C#N)nc23)CCN1C(c1ccc(F)cc1)c1ccc(F)cc1 (stereo not drawn) [Example 27]
Marked response: MID

Exam item: Returns: class label. Input: Cc1ccc(C(c2ccc(F)cc2)N2C[C@H](C)N(c3cc(=O)n(C)c4ccc(C#N)nc34)C[C@H]2C)cc1 (stereo partly drawn) [Example 295]
Marked response: MID

Exam item: Returns: class label. Input: CC[C@@H]1CN(c2cc(=O)n(C)c3ccc(C#N)nc23)[C@@H](C)CN1C(c1ccc(F)cc1)c1ccnc(C)n1 (stereo partly drawn) [Example 419]
Marked response: LOW

----------
target: human DGKα (Homo sapiens); construct: TVMV protease cleavage site (C); Hexa-His (C); made in house; host or cells: Sf9 insect cells (baculovirus, Bac-to-Bac); experiment: DGKα LIPGLO assay (extruded liposome substrate), in vitro DGK inhibition; format: biochemical; conditions: DGKα liposome (LIPGLO) assay; read-out: DGKa LIPGLO IC50
Sequence (P23743 with tags, fused parts or gaps): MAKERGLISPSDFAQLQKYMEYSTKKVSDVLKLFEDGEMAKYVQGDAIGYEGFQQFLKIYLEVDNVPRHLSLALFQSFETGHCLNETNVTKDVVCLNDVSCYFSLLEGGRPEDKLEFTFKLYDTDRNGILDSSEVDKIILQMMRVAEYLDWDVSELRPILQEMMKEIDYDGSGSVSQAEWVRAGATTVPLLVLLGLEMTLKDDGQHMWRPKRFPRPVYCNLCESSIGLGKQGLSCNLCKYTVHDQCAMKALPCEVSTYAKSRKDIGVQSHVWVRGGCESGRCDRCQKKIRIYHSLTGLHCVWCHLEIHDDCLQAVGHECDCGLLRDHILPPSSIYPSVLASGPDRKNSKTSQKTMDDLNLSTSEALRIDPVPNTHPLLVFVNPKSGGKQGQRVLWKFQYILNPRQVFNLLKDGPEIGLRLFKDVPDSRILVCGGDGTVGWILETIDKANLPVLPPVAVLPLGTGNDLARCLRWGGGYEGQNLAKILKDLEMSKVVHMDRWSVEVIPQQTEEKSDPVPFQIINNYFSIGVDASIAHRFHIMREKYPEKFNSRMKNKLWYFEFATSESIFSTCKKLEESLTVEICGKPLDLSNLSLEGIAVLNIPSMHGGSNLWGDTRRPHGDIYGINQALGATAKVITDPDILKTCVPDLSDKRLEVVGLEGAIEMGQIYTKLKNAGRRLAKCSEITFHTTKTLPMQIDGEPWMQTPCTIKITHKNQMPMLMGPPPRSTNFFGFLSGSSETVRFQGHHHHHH
Property Label: IC50 (µM)
Note: unit µM is implicit; provide only the numeric part.

Exam item: I'd like to know its IC50. The compound in question is C[C@@H]1CN(c2c(C#N)c(=O)n(C)c3ccc(C#N)nc23)[C@@H](C)CN1C(c1ccc(F)cc1)c1cc(C2CC2)on1 (single isomer, unassigned) [Example 868]
Marked response: 0.44

Exam item: I'd like to know its IC50. The compound in question is C[C@@H]1CN(c2c(C#N)c(=O)n(C)c3ccc(C#N)nc23)CCN1Cc1cccnc1 [Example 998]
Marked response: 21

Exam item: I'd like to know its IC50. The compound in question is C[C@@H]1CN(c2c(C#N)c(=O)n(C)c3ccc(C#N)nc23)CCN1C(c1ccc(F)cc1)c1cccc(C(F)(F)F)n1 (single isomer, unassigned) [Example 922]
Marked response: 1.5

Exam item: I'd like to know its IC50. The compound in question is C[C@@H]1CN(c2c(C#N)c(=O)n(C)c3ccc(C#N)nc23)CCN1Cc1cccc(-c2ccccc2)c1 [Example 1004]
Marked response: 3.9

Exam item: I'd like to know its IC50. The compound in question is Cc1ccc(CN2CCN(c3c(C#N)c(=O)n(C)c4ccc(C#N)nc34)C[C@H]2C)cc1F [Example 1002]
Marked response: 2.7

Exam item: I'd like to know its IC50. The compound in question is Cc1ccc(C(c2ccc(F)cc2)N2C[C@H](C)N(c3c(C#N)c(=O)n(C)c4ccc(C#N)nc34)C[C@H]2C)cc1 (stereo partly shown) [Example 817]
Marked response: 22

Exam item: I'd like to know its IC50. The compound in question is CC(c1ccccn1)N1CCN(c2c(C#N)c(=O)n(C)c3ccc(C#N)nc23)C[C@H]1C (single isomer, unassigned) [Example 963]
Marked response: 1.4

Exam item: I'd like to know its IC50. The compound in question is C[C@@H]1CN(c2c(C#N)c(=O)n(C)c3ccc(C#N)nc23)CCN1C(c1ccc(F)cc1)c1ccccn1 (single isomer, unassigned) [Example 918]
Marked response: 0.052

Exam item: I'd like to know its IC50. The compound in question is C[C@@H]1CN(c2cc(=O)n(C)c3ccc(C#N)nc23)[C@@H](C)CN1C(c1ccc(F)cc1)c1noc(C(C)(C)C)n1 (single isomer, unassigned) [Example 765]
Marked response: 0.62

Exam item: I'd like to know its IC50. The compound in question is Cc1ccc(F)c(CN2CCN(c3c(C#N)c(=O)n(C)c4ccc(C#N)nc34)C[C@H]2C)c1 [Example 1006]
Marked response: 2.6

Exam item: I'd like to know its IC50. The compound in question is C[C@@H]1CN(c2cc(=O)n(C)c3ccc(C#N)nc23)[C@@H](C)CN1C(c1ccc(F)cc1)c1nc(N2CCOCC2)no1 (stereo partly shown) [Example 749]
Marked response: 0.67

Exam item: I'd like to know its IC50. The compound in question is Cc1cccc(CN2CCN(c3c(C#N)c(=O)n(C)c4ccc(C#N)nc34)C[C@H]2C)n1 [Example 988]
Marked response: 2.8

Exam item: I'd like to know its IC50. The compound in question is Cc1cccc(C(c2ccc(F)cc2)N2CCN(c3c(C#N)c(=O)n(C)c4ccc(C#N)nc34)C[C@H]2C)c1 (stereo partly shown) [Example 917]
Marked response: 6.1

Exam item: I'd like to know its IC50. The compound in question is C[C@@H]1CN(c2c(C#N)c(=O)n(C)c3ccc(C#N)nc23)CCN1C(c1ccc(Cl)cc1)c1ccc2c(c1)OC(F)(F)O2 (single isomer, unassigned) [Example 942]
Marked response: 26

Exam item: I'd like to know its IC50. The compound in question is Cc1noc(C(c2ccc(F)cc2)N2C[C@H](C)N(c3cc(=O)n(C)c4ccc(C#N)nc34)C[C@H]2C)n1 (stereo partly shown) [Example 745]
Marked response: 0.38

Exam item: I'd like to know its IC50. The compound in question is C[C@@H]1CN(c2c(C#N)c(=O)n(C)c3ccc(C#N)nc23)[C@@H](C)CN1C(c1ccc(F)cc1)c1ccc(C(F)(F)F)cn1 (single isomer, unassigned) [Example 836]
Marked response: 4.7

Exam item: I'd like to know its IC50. The compound in question is Cc1ccc(C(c2ccc(Cl)cc2)N2C[C@H](C)N(c3c(C#N)c(=O)n(C)c4ccc(C#N)nc34)C[C@H]2C)cc1 (stereo partly shown) [Example 825]
Marked response: 23

Exam item: I'd like to know its IC50. The compound in question is C[C@@H]1CN(c2c(C#N)c(=O)n(C)c3ccc(C#N)nc23)CCN1Cc1ccccc1Cl [Example 997]
Marked response: 1.1

Exam item: I'd like to know its IC50. The compound in question is CCc1ccccc1C(c1ccc(F)cc1)N1C[C@H](C)N(c2c(C#N)c(=O)n(C)c3ccc(C#N)nc23)C[C@H]1C (single isomer, unassigned) [Example 810]
Marked response: 240

Exam item: I'd like to know its IC50. The compound in question is Cc1ccc(C(c2ccc(F)cc2)N2CCN(c3c(C#N)c(=O)n(C)c4ccc(C#N)nc34)C[C@H]2C)cc1 (stereo partly shown) [Example 889]
Marked response: 1.3

Exam item: I'd like to know its IC50. The compound in question is C[C@@H]1CN(c2c(C#N)c(=O)n(C)c3ccc(C#N)nc23)[C@@H](C)CN1C(c1ccc(F)cc1)c1ccns1 (single isomer, unassigned) [Example 855]
Marked response: 27

Exam item: I'd like to know its IC50. The compound in question is CC(c1ccc(F)cc1F)N1CCN(c2c(C#N)c(=O)n(C)c3ccc(C#N)nc23)C[C@H]1C (single isomer, unassigned) [Example 970]
Marked response: 0.87

Exam item: I'd like to know its IC50. The compound in question is C[C@@H]1CN(c2c(C#N)c(=O)n(C)c3ccc(C#N)nc23)CCN1C(c1ccc(F)cc1)c1ccc(C(F)(F)F)cn1 (single isomer, unassigned) [Example 896]
Marked response: 0.19

Exam item: I'd like to know its IC50. The compound in question is C[C@@H]1CN(c2cc(=O)n(C)c3ccc(C#N)nc23)[C@@H](C)CN1C(c1ccc(F)cc1)c1nc(C2CCOCC2)no1 (single isomer, unassigned) [Example 740]
Marked response: 0.61

Exam item: I'd like to know its IC50. The compound in question is C[C@@H]1CN(c2c(C#N)c(=O)n(C)c3ccc(C#N)nc23)CCN1C(c1ccc(F)cc1)c1ccc(Cl)cn1 (stereo partly shown) [Example 933]
Marked response: 0.2

The origin of these recorded values is patent US10669272B2.
